Reported IC50 (FRNT, live virus neutralisation) values for a set of binders
TGT: spike protein of SARS-CoV-2 strain Victoria (SARS-CoV-2/human/AUS/VIC01/2020) (SARS-CoV-2, UniProt P0DTC2 14-1273)
PROTOCOL_SUMMARY: cell-based or functional assay

BINDER	IC50 (FRNT, live virus neutralisation) [µg/mL]
antibody 132 (antibody, V domains shown) VH: QVQLQQWGAGLLKPSETLSLTCAVYGGSFSGYYWSWIRQPPGKGLEWIGEINHSGSTNYNPSLKSRVTISVDTSKNQFSLKLSSVTAADTAVYYCARTDYYDSIDWGQGTLVTVSS VL: QSVLTQEPSLTVSPGGTVTLTCGSSTGAVTSGHYPYWFQQKPGQVPRTLIYDTRNKHSWTPARFSGSLLGGKAALTLSGAQPEDEAEYYCLLSSSGARVFGGGTKLTVL	0.048
antibody 398 (antibody, V domains shown) VH: QVQLVESGGGLVQPGGSLRLSCAASGFTVSSNYMTWVRQAPGKGLEWVSVIYSGGSTYYADSVKGRFTISRDNSKNTLYLQMNSLRADDTAVYYCARDSTADYDFWSGYYVGAFHIWGQGTMVTVSS VL: QTVLTQPASVSGSPGQSITISCTGTSSDVGGYNYVSWYQQHPGKAPKLMIYEVTKRPSGVPDRFSGSKSGNTASLTVSGLQAEDEADYYCSSYAGSNNWVFGGGTKLTVL	0.091
antibody 222 (antibody, V domains shown) VH: EVQLVESGGGLIQPGGSLRLSCAASGLTVSSNYMSWVRQAPGKGLEWVSVIYSGGSTFYADSVKGRFTISRDNSKNTLYLQMNSLGAEDTAVYYCARGEGSPGNWFDPWGQGTLVTVSS VL: DVVMTQSPGTLSLSPGERATLSCRASQSVPSSYLAWYQQKPGQAPRLLIYGASTRATGIPDRFSGSGSGTDFTLTISRLEPEDFAVYYCQHYDTSPRFGGGTKVDIK	0.019
